From: patent US20260166039A1

study-system: Wee1 kinase domain (Homo sapiens)
Construct: Wee1 kinase domain was purchased from Carna (catalog #05-177); purchased Carna 05-177
Sequence (P30291 299-569 limits assumed): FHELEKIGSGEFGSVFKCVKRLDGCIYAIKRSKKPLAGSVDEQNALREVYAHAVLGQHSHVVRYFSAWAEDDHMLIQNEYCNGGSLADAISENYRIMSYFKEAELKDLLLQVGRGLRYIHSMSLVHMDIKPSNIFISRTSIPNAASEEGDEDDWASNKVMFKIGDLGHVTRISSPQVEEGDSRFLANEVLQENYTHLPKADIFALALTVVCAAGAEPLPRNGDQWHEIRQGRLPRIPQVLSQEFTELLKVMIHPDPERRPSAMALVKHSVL
assay-info: Wee1 Kinase Biochemical Assay (ADP-Glo)
experimental-context: class symbols; 1 nM Wee1 enzyme, 15 uM ATP, 4 hours at 25° C.
pIC50: −log10 of the molar value.
Here the recorded pIC50 is given for each entry.

Worked set:
CN1CC[C@@H](c2ccc(Nc3ncc4c(n3)N(c3cccc(N5CCCC5=O)n3)[C@H]3CC(C)(C)OC[C@@]43C)cc2)C1 [Example 643]    7.00 to 8.00
CC[C@]1(O)CCc2ccc(N3c4nc(Nc5ccc(N6C[C@H]7C[C@@H]6CN7C)cc5)ncc4[C@@]4(C)COC(C)(C)C[C@@H]34)nc21 [Example 789]    > 8.00
Cc1cc(Nc2ncc3c(n2)N(c2cccc(N4CCOC4=O)n2)[C@H]2CC(C)(C)OC[C@@]32C)ccc1N1C[C@H]2C[C@@H]1CN2C [Example 661]    7.00 to 8.00

Exam item: For the compound CC1(C)C[C@H]2N(c3cccc(N=S(C)(C)=O)n3)c3nc(NC(=O)c4ccccc4)ncc3[C@@]2(C)CO1 (single isomer, unassigned) [Example 404] , what pIC50 is on record?
Marked response: 7.00 to 8.00

Exam item: For the compound CNCc1cccc(N2c3nc(Nc4ccc(-n5ccnc5)nc4)ncc3[C@@]3(C)COC(C)(C)C[C@@H]23)n1 (single isomer, unassigned) [Example 468] , what pIC50 is on record?
Marked response: > 8.00

Exam item: For the compound CN1C[C@H]2C[C@@H]1CN2c1ccc(Nc2ncc3c(n2)N(c2cccc(N4CCCC4=O)n2)[C@@H]2CC(C)(C)OC[C@]32C)cc1 [Example 631] , what pIC50 is on record?
Marked response: > 8.00

Exam item: For the compound CN1CCN(c2ccc(Nc3ncc4c(n3)N(c3ccn(C)n3)[C@@H]3CC(C)(C)OC[C@]43C)cc2)CC1 (single isomer, unassigned) [Example 717] , what pIC50 is on record?
Marked response: > 8.00

Exam item: For the compound C[C@@H]1COC(=O)N1c1cccc(N2c3nc(Nc4ccc(N5CCN(C)CC5)cc4)ncc3[C@@]3(C)COC(C)(C)C[C@@H]23)n1 (single isomer, unassigned) [Example 589] , what pIC50 is on record?
Marked response: > 8.00

Exam item: For the compound CC1(C)C[C@@H]2N(c3cccc(N4CCCC4=O)n3)c3nc(Nc4ccc([C@@H]5CCNC5)cc4)ncc3[C@]2(C)CO1 [Example 633] , what pIC50 is on record?
Marked response: 7.00 to 8.00

Exam item: For the compound CNCc1cccc(N2c3nc(NC(=O)[C@H]4C[C@@H]4c4ccccc4)ncc3[C@@]3(C)COC(C)(C)C[C@@H]23)n1 [Example 761] , what pIC50 is on record?
Marked response: 7.00 to 8.00
